Data provenance is PubChem BioAssay (NCI).

Listed next: entries and their corresponding TGI.
Tested on: SN12C renal
Assay: NCI tumour cell line growth inhibition, 48 h

# compound, TGI
rows = [
    ("CO/N=C(\\COc1ccc2c(=O)c3ccccc3oc2c1)c1ccccc1", "> 100 µM"),
    ("N#C/C(=C/C=C/c1ccco1)C(N)=O", "> 10 µM"),
    ("COc1ccc(C(=O)Cn2c(C(=O)c3ccccc3)nc3ccccc32)cc1", "> 100 µM"),
    ("COC(C)(C)[C@@H](O)[C@H](O)C[C@H](C)C1=C2CC[C@@H]3[C@@]4(C)CC[C@@H](OC(C)=O)C(C)(C)[C@@H]4C[C@@H](OC4OC(COC(C)=O)C(O)C(O)C4O)[C@@]3(C)[C@]2(C)CC1 (stereo partly drawn)", "26.4 µM"),
    ("Cc1c(C(=O)C/C(=N/NC(=O)c2ccccc2)C(=O)Nc2ccc(Cl)cc2)[n+](=O)c2ccccc2n1[O-]", "> 100 µM"),
    ("CSC(SC)=C(C#N)C(=O)Nc1cccc(Cl)c1", "> 100 µM"),
    ("c1ccc(-c2nn3c(c2-c2ccnc4cc(OCCN5CCOCC5)ccc24)CCC3)nc1", "> 100 µM"),
    ("O=C1CCc2c(sc3[nH]c(=S)n(-c4cc(C(F)(F)F)cc(C(F)(F)F)c4)c(=O)c23)C1", "11.8 µM"),
    ("CCOc1ccc2c(-c3ccnc(Nc4cc(OC)cc(C(F)(F)F)c4)n3)cnn2n1", "> 25 µM"),
    ("COc1ccc2c(c1)/C(=C\\c1ccncc1)C(=O)N2", "23.7 µM"),
    ("COc1cc2cc(C(=O)N3CC(COS(C)(=O)=O)c4ccc(NC(=O)OCc5ccccc5)cc43)[nH]c2c(OC)c1OC (stereo not drawn)", "> 100 µM"),
    ("O=c1c2c([nH]c3nccn13)CCC2", "> 10 µM"),
    ("O=C(COc1ccc(OCC(=O)N2C(=O)CC(=O)N(c3ccc(Cl)cc3)C2=S)cc1)N1C(=O)CC(=O)N(c2ccc(Cl)cc2)C1=S", "> 100 µM"),
    ("C=CC(=O)N1C/C(=C\\c2ccc(Cl)c(Cl)c2)C(=O)/C(=C/c2ccc(Cl)c(Cl)c2)C1", "0.302 µM"),
    ("C[N+]1=c2c3cccc4cccc(c(=O)n2CC1)c43", "68.8 µM"),
    ("Cc1cc(N(CCC#N)S(=O)(=O)c2ccccc2)ccc1/C=C1\\N=C(c2ccc(Cl)cc2)OC1=O", "> 100 µM"),
    ("C/C=C(\\C)C(=O)OC1CC(OC(C)=O)C2(C(=O)OC)COC3C2C1(C)C1C2(C(=O)OC)OCC1(C3O)C1(O)C3CC(C4(O)C=COC4O3)C1(C)O2 (stereo not drawn)", "> 100 µM"),
    ("CN(C)Cc1ccc(-c2cc3onc(-c4ccccc4)c3c(=O)n2C)cc1", "> 100 µM"),
]
